The reported measurements were obtained from the Human Domainome abundance scans (Beltran et al. 2025).

B1: Ankyrin-1, residues 1405 to 1484; numbered along this chain, P16157 (parent)
chain: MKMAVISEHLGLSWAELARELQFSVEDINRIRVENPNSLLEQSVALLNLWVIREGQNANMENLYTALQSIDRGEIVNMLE

Variants of: B1
assayName: abundance fitness (aPCA) (normalised: wild type 0, dead -1); higher = more abundant; growth selection in yeast, the domain comes from the species named
appliedConditions: Homo sapiens
I'd appreciate it if you could supply abundance fitness values for the items below.
Give bare numbers.

{"variantSpec": "N29C", "obsValue": -0.184}
{"variantSpec": "S24C", "obsValue": -0.39}
{"variantSpec": "D27L", "obsValue": -0.429}
{"variantSpec": "L39D", "obsValue": -0.063}
{"variantSpec": "N59K", "obsValue": -0.02}

List reported abundance fitness for each of these variants:
1. D27V
2. N48S
3. E54S
4. N35I
5. G73P
6. D71V

-0.089
-0.277
-0.136
-0.457
-0.205
-0.83
